biological target: CDK9/Cyclin T1 complex (Homo sapiens, UniProt P50750); test: CDK9 inhibition assay (Caliper/LabChip EZ Reader kinase assay); format: biochemical; settings: Table 1; CDK9/Cyclin T1 8 nM, ATP 2 mM, 15 min at 27° C.
Sequence (P50750 whole entry, species assumed): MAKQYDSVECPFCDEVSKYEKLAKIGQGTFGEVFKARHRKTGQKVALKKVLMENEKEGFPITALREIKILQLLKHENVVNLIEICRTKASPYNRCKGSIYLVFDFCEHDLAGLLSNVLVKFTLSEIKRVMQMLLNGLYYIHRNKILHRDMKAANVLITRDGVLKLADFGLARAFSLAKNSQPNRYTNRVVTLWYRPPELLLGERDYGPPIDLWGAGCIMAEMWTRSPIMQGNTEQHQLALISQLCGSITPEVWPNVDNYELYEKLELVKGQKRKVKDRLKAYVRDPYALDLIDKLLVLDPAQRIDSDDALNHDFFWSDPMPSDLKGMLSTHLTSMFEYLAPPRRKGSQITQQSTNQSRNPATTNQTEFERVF
Sequence (O60563 whole entry partner, species assumed): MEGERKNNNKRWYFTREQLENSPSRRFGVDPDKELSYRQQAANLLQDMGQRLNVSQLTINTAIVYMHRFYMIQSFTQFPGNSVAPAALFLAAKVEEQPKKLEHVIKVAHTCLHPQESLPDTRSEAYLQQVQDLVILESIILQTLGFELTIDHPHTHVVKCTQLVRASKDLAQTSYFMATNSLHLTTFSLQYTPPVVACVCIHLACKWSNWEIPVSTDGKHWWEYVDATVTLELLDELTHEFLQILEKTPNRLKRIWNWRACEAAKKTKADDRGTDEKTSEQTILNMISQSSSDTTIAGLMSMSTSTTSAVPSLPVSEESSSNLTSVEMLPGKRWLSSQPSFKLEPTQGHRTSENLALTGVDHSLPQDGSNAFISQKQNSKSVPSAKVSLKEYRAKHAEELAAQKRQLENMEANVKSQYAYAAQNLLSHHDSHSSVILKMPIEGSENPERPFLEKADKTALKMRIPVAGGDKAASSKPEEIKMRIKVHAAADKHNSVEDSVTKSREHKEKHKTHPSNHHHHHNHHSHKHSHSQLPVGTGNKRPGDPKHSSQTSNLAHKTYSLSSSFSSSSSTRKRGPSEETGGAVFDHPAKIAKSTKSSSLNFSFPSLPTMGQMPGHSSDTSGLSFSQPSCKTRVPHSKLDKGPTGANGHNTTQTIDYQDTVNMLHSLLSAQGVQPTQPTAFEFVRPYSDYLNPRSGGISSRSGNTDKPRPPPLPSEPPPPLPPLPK
# Lookup of reported IC50 keyed by entry

Data request: So what's the measured IC50 for this one? C[C@]1(O)CCN(C(=O)c2ccc3c(-c4nc(N[C@H]5CCCNC5)ncc4C(F)(F)F)c[nH]c3c2)C1
Data returned: > 5 µM

Data request: And for CCCc1cnc(N[C@H]2CCCNC2)nc1-c1c[nH]c2c(S(C)(=O)=O)c(C#N)ccc12 ?
Data returned: > 5 µM

Data request: And the next one, N#Cc1ccc2c(-c3nc(N[C@@H]4CCC5(CCC5)NC4)ncc3C(F)(F)F)c[nH]c2c1 (single isomer, unassigned) ?
Data returned: 0.2 to 5 µM

Data request: Can you handle Cc1nc(-c2ccc3c(-c4nc(N[C@H]5CCCNC5)ncc4C(F)(F)F)c[nH]c3c2)n[nH]1 next?
Data returned: 0.2 to 5 µM

Data request: Can you handle Cn1cc(-c2ccc3c(-c4nc(N[C@H]5CCCNC5)ncc4C(F)(F)F)c[nH]c3c2)cc1C#N next?
Data returned: 0.2 to 5 µM

Data request: Could you do the same for FC(F)(F)c1cnc(N[C@H]2CCCNC2)nc1-c1c[nH]c2cc(-c3cccnc3)ccc12 , please?
Data returned: 0.2 to 5 µM

Data request: And the next one, CCC(=O)N[C@H]1CNC[C@@H](Nc2ncc(C(F)(F)F)c(-c3c[nH]c4c(S(C)(=O)=O)cccc34)n2)C1 ?
Data returned: > 5 µM
